Reported IC50 values for a set of compounds
- assay target: KRAS-WT and SOS1 proteins (Homo sapiens, UniProt Q07889)
- Sequence (Q07889 1-1333): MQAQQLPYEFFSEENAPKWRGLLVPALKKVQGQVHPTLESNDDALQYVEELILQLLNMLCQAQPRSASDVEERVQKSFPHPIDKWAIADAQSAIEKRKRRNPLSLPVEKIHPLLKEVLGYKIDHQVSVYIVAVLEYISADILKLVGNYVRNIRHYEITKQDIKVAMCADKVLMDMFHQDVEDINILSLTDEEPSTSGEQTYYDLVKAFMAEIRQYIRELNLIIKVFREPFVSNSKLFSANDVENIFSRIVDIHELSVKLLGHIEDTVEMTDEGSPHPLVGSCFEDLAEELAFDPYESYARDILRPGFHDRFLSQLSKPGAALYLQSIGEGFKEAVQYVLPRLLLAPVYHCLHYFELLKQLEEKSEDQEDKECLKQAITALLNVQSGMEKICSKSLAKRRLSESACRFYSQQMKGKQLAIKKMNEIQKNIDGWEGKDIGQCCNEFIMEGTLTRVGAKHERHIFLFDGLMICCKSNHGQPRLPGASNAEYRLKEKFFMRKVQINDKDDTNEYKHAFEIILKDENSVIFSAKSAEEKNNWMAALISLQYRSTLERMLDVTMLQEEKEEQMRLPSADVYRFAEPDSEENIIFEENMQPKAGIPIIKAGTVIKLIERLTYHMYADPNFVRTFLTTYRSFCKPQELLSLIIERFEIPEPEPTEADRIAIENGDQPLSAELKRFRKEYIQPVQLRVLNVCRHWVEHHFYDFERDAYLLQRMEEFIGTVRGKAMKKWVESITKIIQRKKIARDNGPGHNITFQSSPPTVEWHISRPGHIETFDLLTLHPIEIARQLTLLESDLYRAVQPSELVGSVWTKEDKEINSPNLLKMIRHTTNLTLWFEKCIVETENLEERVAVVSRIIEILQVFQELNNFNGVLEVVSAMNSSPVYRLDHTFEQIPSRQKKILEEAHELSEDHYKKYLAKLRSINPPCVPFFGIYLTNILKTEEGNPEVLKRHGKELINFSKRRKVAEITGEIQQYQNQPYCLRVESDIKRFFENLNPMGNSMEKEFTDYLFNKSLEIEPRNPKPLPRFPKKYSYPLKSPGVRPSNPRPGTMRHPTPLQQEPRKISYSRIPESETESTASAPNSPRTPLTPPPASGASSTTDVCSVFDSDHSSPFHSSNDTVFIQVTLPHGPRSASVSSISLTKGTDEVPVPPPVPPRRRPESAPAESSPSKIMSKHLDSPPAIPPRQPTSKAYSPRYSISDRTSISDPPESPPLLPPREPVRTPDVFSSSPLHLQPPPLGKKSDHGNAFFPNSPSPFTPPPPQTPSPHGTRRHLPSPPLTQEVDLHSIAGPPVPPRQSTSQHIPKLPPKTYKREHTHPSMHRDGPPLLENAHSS

>  <compound>
C[C@@H](Nc1nc(C(F)(F)F)nc2c1cc(-c1ccc(=O)n(C)c1)c1c2cnn1C)c1cc(F)cc(C(F)(F)CO)c1

>  <IC50>
100 to 500 nM

$$$$
>  <compound>
COCC(=O)N1CCC(c2cc3c(N[C@H](C)c4cccc(C(F)(F)CO)c4)nc(C)nc3n3cnnc23)CC1

>  <IC50>
< 100 nM

$$$$
>  <compound>
Cc1nc(N[C@H](C)c2cccc(C(F)(F)CO)c2)c2cc(N3CCC(O)C3)c3c(cnn3C)c2n1 (some centres unmarked)

>  <IC50>
< 100 nM

$$$$
>  <compound>
CC(=O)N1CCC(c2cc3c(N[C@H](C)c4cccc(C(F)(F)CO)c4)nc(C)nc3n3cnnc23)CC1

>  <IC50>
< 100 nM

$$$$
>  <compound>
Cc1nc(N[C@H](C)c2cccc(C(F)(F)F)c2)c2cc(OC3CCOC3)c3c(cnn3C)c2n1 (some centres unmarked)

>  <IC50>
100 to 500 nM

$$$$

Just for reference, patent US20240109891A1 is where these values come from.
